- Tested on: SW1353
- ASSAY: relative viability vs DMSO control (72 h) (fraction); higher = more viable cells
- CONDITION_DETAILS: 0.01372 µM
Provide the recorded relative viability for the entries that follow.
Field format: numeric only.

Consider the compound CO[C@H]1C[C@@H]2CC[C@@H](C)[C@@](O)(O2)C(=O)C(=O)N2CCCC[C@H]2C(=O)O[C@H]([C@H](C)C[C@@H]2CC[C@@H](OCCO)[C@H](OC)C2)CC(=O)[C@H](C)/C=C(\C)[C@@H](O)[C@@H](OC)C(=O)[C@H](C)C[C@H](C)/C=C/C=C/C=C/1C [Certican] and give its recorded relative viability.
0.76

Consider the compound O=c1sn(-c2cccc3ccccc23)c(=O)n1Cc1ccccc1 [Tideglusib] and give its recorded relative viability.
1.02

Consider the compound CC(C)NC[C@@H](C(=O)N1CCN(c2ncnc3c2[C@H](C)C[C@H]3O)CC1)c1ccc(Cl)cc1 [Ipatasertib] and give its recorded relative viability.
0.991

---

- Test system: HS729
- ASSAY: relative viability vs DMSO control (72 h) (fraction); higher = more viable cells
- CONDITION_DETAILS: 0.01372 µM
// returns No unless relative viability is strictly below 0.9, in which case Yes

Here's an entry: CCC(=O)N1CC[C@H](Nc2ncnc3c2CN(c2cnc(OC)c(C(F)(F)F)c2)CC3)C1 . Is its relative viability below 0.9?
No

Here's an entry: COc1cc(CCc2cc(NC(=O)c3ccc(N4CC(C)NC(C)C4)cc3)n[nH]2)cc(OC)c1 (stereo not drawn) . Is its relative viability below 0.9?
Yes

Here's an entry: CN1CCN(c2ccc(C(=O)Nc3n[nH]c4ccc(Cc5cc(F)cc(F)c5)cc34)c(NC3CCOCC3)c2)CC1 . Is its relative viability below 0.9?
No

Here's an entry: Cc1cc2c(F)c(Oc3ncnn4cc(OC[C@@H](C)O)c(C)c34)ccc2[nH]1 . Is its relative viability below 0.9?
No

Here's an entry: CC(C)(C)c1nc(-c2cccc(NS(=O)(=O)c3c(F)cccc3F)c2F)c(-c2ccnc(N)n2)s1 . Is its relative viability below 0.9?
Yes

Here's an entry: COc1cc(Nc2ncc(F)c(Nc3ccc4c(n3)N(COP(=O)(O)O)C(=O)C(C)(C)O4)n2)cc(OC)c1OC . Is its relative viability below 0.9?
No

Here's an entry: N#CC1(c2ccc(NC(=O)c3cccnc3NCc3ccncc3)cc2)CCCC1 . Is its relative viability below 0.9?
No

Here's an entry: CC1(COc2ccc3c(c2)ncn3-c2ccc3cccc(N4CCC(N)CC4)c3n2)COC1 . Is its relative viability below 0.9?
No

Here's an entry: O=c1sn(-c2cccc3ccccc23)c(=O)n1Cc1ccccc1 . Is its relative viability below 0.9?
No

Here's an entry: C[C@]12O[C@H](C[C@]1(O)CO)n1c3ccccc3c3c4c(c5c6ccccc6n2c5c31)CNC4=O . Is its relative viability below 0.9?
Yes

---

- System: RD
- ASSAY: relative viability vs DMSO control (72 h) (fraction); higher = more viable cells
- CONDITION_DETAILS: 0.00051 µM
Provide the recorded relative viability for the entries that follow.

Recall the reported relative viability of N#CC1(c2ccc(NC(=O)c3cccnc3NCc3ccncc3)cc2)CCCC1 on RD and write it down.
1.02

Recall the reported relative viability of CN1CC[C@@H](NC(=O)Nc2ccc(C#N)cc2)C[C@@H]1c1nc2ccccc2[nH]1 on RD and write it down.
1.03

Recall the reported relative viability of Cc1cc2cc(Oc3ccnc(Nc4cccc(CS(=O)(=O)NCCN(C)C)c4)n3)ccc2[nH]1 on RD and write it down.
1.09

Recall the reported relative viability of Cc1ccc(Nc2nccc(N(C)c3ccc4c(C)n(C)nc4c3)n2)cc1S(N)(=O)=O on RD and write it down.
1.12

Recall the reported relative viability of Cn1cc(C2=C(c3cn(C4CCN(Cc5ccccn5)CC4)c4ccccc34)C(=O)NC2=O)c2ccccc21 on RD and write it down.
1.07

Recall the reported relative viability of CCN(CC)CCNC(=O)c1c(C)[nH]c(/C=C2\C(=O)Nc3ccc(F)cc32)c1C on RD and write it down.
1.11

Recall the reported relative viability of CC#CC(=O)N1CCC[C@H]1c1nc(-c2ccc(C(=O)Nc3ccccn3)cc2)c2c(N)nccn12 on RD and write it down.
1.13

Recall the reported relative viability of COc1cc(OC)c(/C=C/S(=O)(=O)Cc2ccc(OC)c(NCC(=O)O)c2)c(OC)c1 on RD and write it down.
1.09

Recall the reported relative viability of O=C(Nc1nc2cccc(-c3ccc(CN4CCS(=O)(=O)CC4)cc3)n2n1)C1CC1 on RD and write it down.
1.04

Recall the reported relative viability of CC1(C)CC=C(c2nc(C3CC(C)(C)OC(C)(C)C3)ccc2NC(=O)c2nc(C#N)c[nH]2)CC1 on RD and write it down.
1.09

Recall the reported relative viability of CC(C)(C)c1nc(-c2cccc(NS(=O)(=O)c3c(F)cccc3F)c2F)c(-c2ccnc(N)n2)s1 on RD and write it down.
1.07

---

- Test system: SK-LMS-1
- ASSAY: relative viability vs DMSO control (72 h) (fraction); higher = more viable cells
- CONDITION_DETAILS: 3.333 µM
READOUT_KIND: relative viability
Field format: numeric only.

Recall the reported relative viability of Cc1cc2cc(Oc3ccnc(Nc4cccc(CS(=O)(=O)NCCN(C)C)c4)n3)ccc2[nH]1 on SK-LMS-1 and write it down.
0.924

Recall the reported relative viability of CC(C)(O)CNc1nc(Nc2ccnc(C(F)(F)F)c2)nc(-c2cccc(C(F)(F)F)n2)n1 on SK-LMS-1 and write it down.
1.11

Recall the reported relative viability of N#CC1(c2ccc(NC(=O)c3cccnc3NCc3ccncc3)cc2)CCCC1 on SK-LMS-1 and write it down.
1

---

- System: HT1080
- ASSAY: relative viability vs DMSO control (72 h) (fraction); higher = more viable cells
- CONDITION_DETAILS: 0.00051 µM
Provide the recorded relative viability for the entries that follow.
Field format: numeric only.

Recall the reported relative viability of Cn1ncnc1[C@H]1c2n[nH]c(=O)c3cc(F)cc(c23)N[C@@H]1c1ccc(F)cc1 [Talazoparib] on HT1080 and write it down.
1.05

Recall the reported relative viability of CNC(=O)c1nnc(NC(=O)C2CC2)cc1Nc1cccc(-c2ncn(C)n2)c1OC on HT1080 and write it down.
1.04

Recall the reported relative viability of COC(=O)N[C@@H](C)CNc1nccc(-c2cn(C(C)C)nc2-c2cc(Cl)cc(NS(C)(=O)=O)c2F)n1 [Encorafenib] on HT1080 and write it down.
1.09

Recall the reported relative viability of COc1cc(OC)c(/C=C/S(=O)(=O)Cc2ccc(OC)c(NCC(=O)O)c2)c(OC)c1 [Rigosertib] on HT1080 and write it down.
1.03

---

- Tested on: SW684
- ASSAY: relative viability vs DMSO control (72 h) (fraction); higher = more viable cells
- CONDITION_DETAILS: 0.04115 µM
Provide the recorded relative viability for the entries that follow.
Field format: numeric only.

Consider the molecule O=c1sn(-c2cccc3ccccc23)c(=O)n1Cc1ccccc1 and give its recorded relative viability.
1.14

Consider the molecule CC1(COc2ccc3c(c2)ncn3-c2ccc3cccc(N4CCC(N)CC4)c3n2)COC1 and give its recorded relative viability.
1.05

Consider the molecule CC(C)Oc1ccc(-c2nn([C@@H](C)c3oc4ccc(F)cc4c(=O)c3-c3cccc(F)c3)c3ncnc(N)c23)cc1F and give its recorded relative viability.
1.19

Consider the molecule COCCNc1cc(NC(=O)N2CCCc3cc(CN4CCN(C)CC4=O)c(C=O)nc32)ncc1C#N and give its recorded relative viability.
1.05

Consider the molecule CC#CC(=O)N1CCC[C@H]1c1nc(-c2ccc(C(=O)Nc3ccccn3)cc2)c2c(N)nccn12 and give its recorded relative viability.
1.1

Consider the molecule O=C(Nc1ccc(OC(F)(F)Cl)cc1)c1cnc(N2CC[C@@H](O)C2)c(-c2cc[nH]n2)c1 and give its recorded relative viability.
1.1

Consider the molecule CN1CC[C@@H](NC(=O)Nc2ccc(C#N)cc2)C[C@@H]1c1nc2ccccc2[nH]1 and give its recorded relative viability.
1.18

Consider the molecule COc1cc(OC)c(/C=C/S(=O)(=O)Cc2ccc(OC)c(NCC(=O)O)c2)c(OC)c1 and give its recorded relative viability.
1.15

---

Provide the recorded relative viability for the entries that follow.
- Test system: VA-ES-BJ
- ASSAY: relative viability vs DMSO control (72 h) (fraction); higher = more viable cells
- CONDITION_DETAILS: 0.3704 µM
Field format: numeric only.

Recall the reported relative viability of Clc1ccc(Nc2nnc(Cc3ccncc3)c3ccccc23)cc1 on VA-ES-BJ and write it down.
1.05

Recall the reported relative viability of COC(=O)[C@@]1(O)C[C@H]2O[C@]1(C)n1c3ccccc3c3c4c(c5c6ccccc6n2c5c31)C(=O)NC4 [K-252a] on VA-ES-BJ and write it down.
0.67

Recall the reported relative viability of CCc1cnn2c(NCc3ccc[n+]([O-])c3)cc(N3CCCC[C@H]3CCO)nc12 on VA-ES-BJ and write it down.
0.255

Recall the reported relative viability of CCC(=O)N1CC[C@H](Nc2ncnc3c2CN(c2cnc(OC)c(C(F)(F)F)c2)CC3)C1 on VA-ES-BJ and write it down.
1

Recall the reported relative viability of CNC(=O)c1ccccc1Sc1ccc2c(/C=C/c3ccccn3)n[nH]c2c1 on VA-ES-BJ and write it down.
0.987

Recall the reported relative viability of COc1cc(CCc2cc(NC(=O)c3ccc(N4CC(C)NC(C)C4)cc3)n[nH]2)cc(OC)c1 (configuration not stated) on VA-ES-BJ and write it down.
1.02

Recall the reported relative viability of Cc1cccc(-c2nn3c(c2-c2ccnc4ccc(C(N)=O)cc24)CCC3)n1 on VA-ES-BJ and write it down.
1.01
